# assayed_target: human mAChR M4 (Homo sapiens)
# Construct: expressed in transfected cells; host or cells: CHO-K1 (ATCC), co-transfected with chimeric G protein Gqi5
# protocol: mAChR M4 cell-based functional assay (calcium flux, antagonism of EC80 acetylcholine response, M4/Gqi5/CHO-K1 cells)
# experimental_context: CHO-K1, % ACh maximum at 30 μM; read-out: Human M4 Emin
measured_metric: remaining activity at 30 µM (%)

Known results for molecules:
Q. Report remaining activity at 30 µM for [2H]C([2H])(N1C[C@H]2C[C@H](Nc3ccc(-c4cccnc4C(F)(F)F)nn3)C[C@H]2C1)C12COC(C)(C1)C2
A. 3

Q. Name the recorded remaining activity at 30 µM of the molecule listed here: [2H]C([2H])([C@@H]1COCCO1)N1C[C@H]2C[C@H](Nc3ccc(-c4cnccc4C(F)(F)F)nn3)C[C@H]2C1
A. 3

Q. Give the value of remaining activity at 30 µM reported for the following: [2H]C([2H])(C1CCOCC1)N1C[C@H]2C[C@H](Nc3ccc(-c4cccnc4C(F)(F)F)nn3)C[C@H]2C1
A. 23

Q. Look up and report measured remaining activity at 30 µM for this entry: [2H]C1([2H])CC(CN2C[C@H]3C[C@H](Nc4nnc(-c5cnccc5C(F)(F)F)cc4OC)C[C@H]3C2)CC([2H])([2H])O1
A. 2

Q. Quote remaining activity at 30 µM reported for [2H]C([2H])(C1CC(C)(C)OC(C)(C)C1)N1C[C@H]2C[C@H](Nc3ccc(-c4cnccc4C(F)(F)F)nn3)C[C@H]2C1 please.
A. 14

Q. Indicate its recorded remaining activity at 30 µM; the molecule in question is [2H]C([2H])([C@@H]1CCOC(C)(C)C1)N1C[C@H]2C[C@H](Nc3ccc(-c4cccnc4C(F)(F)F)nn3)C[C@H]2C1
A. 4

Q. Report remaining activity at 30 µM for [2H]C([2H])(N1C[C@H]2C[C@H](Nc3ccc(-c4cnccc4C(F)(F)F)nn3)C[C@H]2C1)[C@@]12CCCCC[C@H]1OCC2 (racemic)
A. 31

Q. Identify remaining activity at 30 µM associated with the molecule [2H]C([2H])([C@H]1CCCCO1)N1C[C@H]2C[C@H](Nc3ccc(-c4cnccc4C(F)(F)F)nn3)C[C@H]2C1
A. 2

A. [2H]C([2H])(CC1CCOCC1)N1C[C@H]2C[C@H](Nc3ccc(-c4cccnc4C(F)(F)F)nn3)C[C@H]2C1
B. [2H]C([2H])(C1CCOC2(CCC2)C1)N1C[C@H]2C[C@H](Nc3ccc(-c4cccnc4C(F)(F)F)nn3)C[C@H]2C1 (stereo partly shown)
C. [2H]C([2H])(C1CCOCC1)N1C[C@H]2C[C@H](Nc3nnc(-c4cnccc4C(F)(F)F)cc3OC)C[C@H]2C1
Q. Task for the reader: rank each entry by its remaining activity at 30 µM, from the minimum upward. Give the labels in the order requested.
A. A, B, C
(A: 2%, B: 4%, C: 7%)

a. [2H]C1([2H])CC(C([2H])([2H])N2C[C@H]3C[C@H](Nc4ccc(-c5cccnc5C(F)(F)F)nn4)C[C@H]3C2)CC([2H])([2H])O1
b. [2H]C([2H])([C@@H]1CCCCO1)N1C[C@H]2C[C@H](Nc3ccc(-c4cnccc4C(F)(F)F)nn3)C[C@H]2C1
Q. Name the one with the greater remaining activity at 30 µM value, either a or b as given. State your choice using its label.
A. b
(b: 3%, a: 2%)

P. [2H]C([2H])(C1CCOCC1)N1C[C@H]2C[C@H](Nc3nnc(-c4cnccc4C(F)(F)F)cc3C(F)F)C[C@H]2C1
Q. [2H]C([2H])([C@@H]1CCCOC1)N1C[C@H]2C[C@H](Nc3ccc(-c4cnccc4C(F)(F)F)nn3)C[C@H]2C1
Q. Form: Entry with minimum remaining activity at 30 µM (choose one): P / Q Pick one; state its label.
A. Q

A. [2H]C([2H])(C1CCOCC1)N1C[C@H]2C[C@H](Nc3ccc(-c4cccnc4C(F)F)nn3)C[C@H]2C1
B. [2H]C([2H])([C@@H]1CCCOC1)N1C[C@H]2C[C@H](Nc3ccc(-c4cccnc4C(F)(F)F)nn3)C[C@H]2C1
Q. Two entries are listed, A and B . Which one carries the higher remaining activity at 30 µM? Mark your selection by writing its label.
A. A

A. [2H]C([2H])(C1CCOCC1(C)C)N1C[C@H]2C[C@H](Nc3ccc(-c4cccnc4C(F)(F)F)nn3)C[C@H]2C1 (stereo partly shown)
B. [2H]C([2H])(C1CCOCC1)N1C[C@@H]2C[C@@H](Nc3ccc(-c4cccnc4C(F)(F)F)nn3)C[C@]2(C)C1 (racemic)
Q. remaining activity at 30 µM comparison. Which is larger, A or B ? Please identify the chosen entry by its label.
A. A
(A: 3%, B: 2%)

====

# assayed_target: human mAChR M4 (Homo sapiens)
# protocol: mAChR M4 cell-based functional assay (calcium flux, antagonism of EC80 acetylcholine response, M4/Gqi5/CHO-K1 cells)
# experimental_context: decrease of the response elicited by an EC80 concentration of acetylcholine; CHO-K1 cells, Gqi5
pIC50: −log10 of the molar value.
measured_metric: pIC50

Past entries and their recorded results:
Q. Fill in pIC50 for [2H]C([2H])(C1CCOCC1(C)C)N1C[C@H]2C[C@H](Nc3ccc(-c4cnccc4C(F)(F)F)nn3)C[C@H]2C1 (stereo partly shown) [Compound 3] tested with human mAChR M4 (Homo sapiens).
A. 8.34

Q. Recall the reported pIC50 of [2H]C([2H])(C1CCOCC1)N1C[C@H]2C[C@H](Nc3nnc(-c4cnccc4C(F)(F)F)cc3C(F)F)C[C@H]2C1 [Compound 26] when tested on human mAChR M4 (Homo sapiens).
A. 8.89

Q. Provide the reported pIC50 (system: human mAChR M4 (Homo sapiens)) for [2H]C([2H])(N1C[C@H]2C[C@H](Nc3ccc(-c4cnccc4C(F)(F)F)nn3)C[C@H]2C1)C1(F)CCOCC1 [Compound 11]
A. 9.07

A. [2H]C1([2H])CC(C([2H])([2H])N2C[C@H]3C[C@H](Nc4ccc(-c5cccnc5C(F)(F)F)nn4)C[C@H]3C2)CC([2H])([2H])O1 [Compound 44]
B. [2H]C([2H])(C1CCOC(C)(C)C1)N1C[C@H]2C[C@H](Nc3ccc(-c4cnccc4C(F)(F)F)nn3)C[C@H]2C1 (stereo partly shown) [Compound 33]
Q. Decide: A or B , by lowest recorded pIC50. Return value: the label identifying the chosen record.
A. B
(B: 8.38, A: 8.85)

A. [2H]C([2H])(N1C[C@H]2C[C@H](Nc3nnc(-c4cnccc4C(F)(F)F)cc3C)C[C@H]2C1)C(F)(F)C1CCOCC1 [Compound 37]
B. [2H]C([2H])(CC1CCOCC1)N1C[C@H]2C[C@H](Nc3ccc(-c4cccnc4C(F)(F)F)nn3)C[C@H]2C1 [Compound 42]
Q. Return label of the item with the larger pIC50. Candidates: A , B . Could you answer with the label of the item you picked?
A. B
(B: 8.89, A: 7.68)

P. [2H]C([2H])([C@H]1COCCO1)N1C[C@H]2C[C@H](Nc3ccc(-c4cnccc4C(F)(F)F)nn3)C[C@H]2C1 [Compound 5]
Q. [2H]C1([2H])CC(C([2H])([2H])N2C[C@H]3C[C@H](Nc4ccc(-c5cccnc5C(F)(F)F)nn4)C[C@@]3(C)C2)CC([2H])([2H])O1 (racemic) [Compound 57]
Q. Which is greater in pIC50, the first item P or the second item Q ? Provide the label of your selected option as the answer.
A. P

====

# assayed_target: human mAChR M4 (Homo sapiens)
# protocol: mAChR M4 cell-based functional assay (calcium flux, antagonism of EC80 acetylcholine response, M4/Gqi5/CHO-K1 cells)
# experimental_context: decrease of the response elicited by an EC80 concentration of acetylcholine; CHO-K1 cells, Gqi5
# Protocol: Human or rat M4 cDNA, along with the chimeric G protein Gqi5, were transfected into Chinese hamster ovary (CHO-K1) cells purchased from the American Type Culture Collection using Lipofectamine2000. […] Calcium flux was measured using the Functional Drug Screening System (FDSS) 6000 or 7000 (Hamamatsu Corporation, Tokyo, Japan) as an increase in the fluorescent static ratio. […] Agonist activity was analyzed as a concentration-dependent increase in calcium mobilization upon compound addition. […]
measured_metric: IC50 (nM)

a. [2H]C([2H])(C1CCOC2(CCC2)C1)N1C[C@H]2C[C@H](Nc3ccc(-c4cccnc4C(F)(F)F)nn3)C[C@H]2C1 (stereo partly drawn)
b. [2H]C([2H])(C1CCOCC1)N1C[C@H]2C[C@H](Nc3ccc(-c4cccnc4C(F)F)nn3)C[C@H]2C1
Q. Please indicate which has the smaller reported IC50: a , or b . Mark your selection by writing its label.
A. b

====

# assayed_target: human mAChR M4 (Homo sapiens, UniProt P08173)
# Sequence (P08173 whole entry): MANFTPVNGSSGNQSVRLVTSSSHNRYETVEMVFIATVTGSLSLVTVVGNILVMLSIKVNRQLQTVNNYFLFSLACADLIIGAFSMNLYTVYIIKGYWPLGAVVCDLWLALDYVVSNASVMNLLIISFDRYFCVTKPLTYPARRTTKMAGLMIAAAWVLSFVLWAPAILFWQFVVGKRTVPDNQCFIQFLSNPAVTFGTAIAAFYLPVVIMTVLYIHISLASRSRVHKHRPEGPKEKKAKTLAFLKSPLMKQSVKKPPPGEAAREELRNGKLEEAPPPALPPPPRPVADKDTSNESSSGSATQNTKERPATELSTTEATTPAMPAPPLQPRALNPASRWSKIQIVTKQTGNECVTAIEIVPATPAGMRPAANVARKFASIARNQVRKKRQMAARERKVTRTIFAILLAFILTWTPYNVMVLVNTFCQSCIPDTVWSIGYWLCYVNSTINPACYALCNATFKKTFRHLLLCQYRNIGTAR
# protocol: mAChR M4 cell-based functional assay (calcium flux, antagonism of EC80 acetylcholine response, M4/Gqi5/CHO-K1 cells)
# experimental_context: decrease of the response elicited by an EC80 concentration of acetylcholine; CHO-K1 cells, Gqi5
pIC50: −log10 of the molar value.
measured_metric: pIC50

# example entries with known answers
Q. Please list pIC50 recorded for the compound [2H]C([2H])(C1CCOCC1)N1C[C@H]2C[C@H](Nc3nnc(-c4cnccc4C(F)(F)F)c4ccsc34)C[C@H]2C1 [Compound 35]
A. 9.28

Q. Give reported pIC50 value for [2H]C([2H])(C1CCOC(C)(C)C1)N1C[C@H]2C[C@H](Nc3ccc(-c4cnccc4C(F)(F)F)nn3)C[C@H]2C1 (single isomer, unassigned) [Compound 59]
A. 9.00

1. [2H]C([2H])(C1CCOCC1)N1C[C@H]2C[C@H](Nc3ccc(-c4cccnc4C(F)(F)F)nn3)C[C@H]2C1 [Compound 39]
2. [2H]C([2H])(C1CCOCC1)N1C[C@H]2C[C@H](Nc3nnc(-c4cnccc4C(F)(F)F)cc3C3CC3)C[C@H]2C1 [Compound 14]
Q. Select the item whose pIC50 value is smaller, choosing between 1 and 2 . Your answer should be the label attached to the chosen record.
A. 2

Data origin: patent US20240109873A1
